# TEST_METHOD_NOTES: Lactate dehydrogenase (LDH) viability assay in human neutrophils
# Type: cell-based
# CONDITION_LABEL: human, human neutrophils; 10 μM; based on lactate dehydrogenase release; mean ± S.E.M. (n = 3); read-out: Cell viability, Human Neutrophils
READOUT_LABEL: viability at 15 min, 10 µM (%)
Numbers only, in %.

- COC(=O)[C@]1(Cc2ccc(O)c(CC=C(C)C)c2)OC(=O)C(O)=C1c1ccc(O)cc1: 94.1

# evaluate next
Exam item: Field request: viability at 15 min, 10 µM | item: COC(=O)[C@]1(Cc2ccc(O)c(CC3OC3(C)C)c2)OC(=O)C(O)=C1c1ccc(O)cc1 (some centres unmarked)
Marked response: 98.2

====

# TEST_METHOD_NOTES: MTT cell viability assay in mast cells
# Type: cell-based
# CONDITION_LABEL: rat
READOUT_LABEL: viability at 100 µM

Exam item: Which value of viability at 100 µM has been reported for CC(C)=CCc1cc(C=O)ccc1O in the records?
Marked response: > 90%

====

# Test system: RBL-2H3 cells
# TEST_METHOD_NOTES: Antigen (anti-DNP IgE plus DNP-BSA)-induced degranulation (β-hexosaminidase release) assay
# Assay type: cell-based
# CONDITION_LABEL: Rattus norvegicus, RBL-2H3, read-out: Inhibition of Antigen-Induced Degranulation IC50
pIC50: −log10 of the molar value.
READOUT_LABEL: pIC50

Please report pIC50 for every entry that follows.
1. COC(=O)[C@]1(Cc2ccc(O)c(CC=C(C)C)c2)OC(=O)C(O)=C1c1ccc(O)cc1
2. C=C1C[C@]2(O)[C@@]3(C)CCC(=O)C(C)(C)C3=C(O)C(=O)[C@@]2(C)[C@@H]2C(=O)O[C@@](C)(C(=O)OC)C(=O)[C@@]12C
3. COC(=O)[C@]1(Cc2ccc(O)c(CC3OC3(C)C)c2)OC(=O)C(O)=C1c1ccc(O)cc1 (stereo partly shown)
4. CC(C)=CCc1cc(C=O)ccc1O

Marked response:
[4.38, "< 4.00", "< 4.00", "< 4.00"]
